System: SNU-C1
Assay: cells
Format: cell-based
Details: basal
observation-type: IC50/EC50, Basal_Viability ATP SNU-C1 (assay number 30) (µM)

INSERT INTO assay_data (given_smiles, lt_gt_eq, assay_result) VALUES
  ('Fc1ccc(C(OCCN2CCN(CCCc3ccccc3)CC2)c2ccc(F)cc2)cc1', '=', 1.817),
  ('OC[C@H]1O[C@@H](n2cnc3c(=S)nc[nH]c32)[C@H](O)[C@@H]1O', '=', 2.185),
  ('Cn1cnc([N+](=O)[O-])c1Sc1ncnc2nc[nH]c12', '>', 20),
  ('CCN1/C(=C/C=C/c2sc3ccccc3[n+]2CC)Sc2ccccc21.[I-]', '=', 0.01721),
  ('Cc1cccc(Cc2cnc[nH]2)c1C.Cl', '>', 20),
  ('NC(N)=NN=C(/C=C/c1ccc([N+](=O)[O-])o1)/C=C/c1ccc([N+](=O)[O-])o1', '=', 1.3539),
  ('OCCN1CCN(CC/C=C2/c3ccccc3Sc3ccc(C(F)(F)F)cc32)CC1', '=', 1.035);

----------
As an illustration, consider measured VEGF_ADSC\ECFC Angio Hoechst NucArea IC50/EC50 for compounds on ECFC/ADSC co-culture cell nuclei number.
*1 amine or outer side, *2 acyl side, *3 side chain or, on linkers, in order; H or OH if unused. Where a SMILES comes first, the peptide text is derived from it. Bridges are numbered along the chain shown (N, C = ends). Roman numbers before positions name the chains, in order. [ ]: non-standard residue; d: D form. Actinocin(9to1) = Cc1c2oc3c(C)ccc(C(=O)[*:1])c3nc-2c(C(=O)[*:2])c(N)c1=O; NMeV = CN[C@H](C(=O)O)C(C)C; Sar = CNCC(=O)O
observation-type: VEGF_ADSC\ECFC Angio Hoechst NucArea IC50/EC50

INSERT INTO assay_data (compound, assay_result) VALUES
  ('CC(C)(C)C1CCC(CC2=C(O)c3ccccc3C(=O)C2=O)CC1 (stereo not shown)', '> 10 µM'),
  ('CCC(C(=O)OCCOCCN(CC)CC)c1ccccc1.O=C(O)CC(O)(CC(=O)O)C(=O)O (stereo not shown)', '> 10 µM'),
  ('CN[C@@H]1C[C@@H](c2ccc(Cl)c(Cl)c2)c2ccccc21', '> 10 µM'),
  ('CCCCN(CCCC)CCC(O)c1cc2c(Cl)cc(Cl)cc2c2cc(C(F)(F)F)ccc12 (stereo not shown)', '> 10 µM'),
  ('Cc1c(O)cc2c(c1C)O[C@](C)(CCC[C@H](C)CCC[C@H](C)CCCC(C)C)CC2', '> 10 µM'),
  ('COc1ccc2cc3[n+](cc2c1OC)CCc1cc2c(cc1-3)OCO2', '> 10 µM'),
  ('CC(=O)Nc1ccn(C2COC(COC(=O)c3ccccc3)O2)c(=O)n1 (stereo not shown)', '> 10 µM'),
  ('CCCCCN=C(N)N/N=C/c1c[nH]c2ccc(OC)cc12', '7.175 µM'),
  ('CC[C@@]1(O)C(=O)OCc2c1cc1n(c2=O)Cc2c-1nc1ccccc1c2/C=N/OC(C)(C)C', '0.7994 µM'),
  ('CS(=O)(=O)O.Cc1c(O)cccc1C(=O)N[C@@H](CSc1ccccc1)[C@H](O)CN1C[C@H]2CCCC[C@H]2C[C@H]1C(=O)NC(C)(C)C', '> 10 µM'),
  ('Cc1c2oc3c(C)ccc(C(=O)N[C@@H]4C(=O)N[C@H](C(C)C)C(=O)N5CCC[C@H]5C(=O)N(C)CC(=O)N(C)[C@@H](C(C)C)C(=O)O[C@@H]4C)c3nc-2c(C(=O)N[C@@H]2C(=O)N[C@H](C(C)C)C(=O)N3CCC[C@H]3C(=O)N(C)CC(=O)N(C)[C@@H](C(C)C)C(=O)O[C@@H]2C)c(N)c1=O [NCGC00271789-02] (I: T[dV]P[Sar][NMeV] / II: T[dV]P[Sar][NMeV]; ester I:1-I:C, II:1-II:C; linker I:N-II:N via Actinocin(9to1))', '0.04031 µM'),
  ('CC[C@]12CCCN3CCc4c(n(c5ccccc45)C(=O)C1)[C@@H]32', '> 10 µM'),
  ('CC[C@@H]([C@H](C)O)n1ncn(-c2ccc(N3CCN(c4ccc(OC[C@@H]5CO[C@@](Cn6cncn6)(c6ccc(F)cc6F)C5)cc4)CC3)cc2)c1=O', '> 10 µM'),
  ('CCCCCCCCCCCCCCCCCCCCCC(=O)Nc1ccn([C@@H]2O[C@H](CO)[C@@H](O)[C@@H]2O)c(=O)n1', '> 10 µM'),
  ('O=C(NC1CCN(CCc2c[nH]c3ccccc23)CC1)c1ccccc1', '> 10 µM'),
  ('OC[C@@H](O)[C@@H](O)[C@H](O)[C@@H](O)CO', '> 10 µM'),
  ('O=C1c2c(O)ccc(O)c2C(=O)c2c(NCCNCCO)ccc(NCCNCCO)c21', '0.01274 µM'),
  ('O=C(Nc1ccc(Br)cc1)c1cc(Br)c(Br)s1', '> 10 µM'),
  ('Cc1cc(O)c2ccccc2c1O', '9.854 µM'),
  ('O=C(O)C[CH2][Ge](=[O])[O][Ge](=[O])[CH2]CC(=O)O', '0.2606 µM'),
  ('CCCCCCCC[N+](C)(C)CCCCCCCC', '7.431 µM'),
  ('Clc1ccc(C(Cn2ccnc2)OCc2ccc(Sc3ccccc3)cc2)c(Cl)c1 (stereo not shown)', '> 10 µM'),
  ('CC(=O)O[C@H]1C[C@H](O[C@H]2[C@@H](O)C[C@H](O[C@@H]3[C@@H](O)C[C@H](O[C@H]4CC[C@@]5(C)[C@H](CC[C@@H]6[C@H]5C[C@@H](O)[C@]5(C)[C@@H](C7=CC(=O)OC7)CC[C@]65O)C4)O[C@@H]3C)O[C@@H]2C)O[C@H](C)[C@H]1O[C@@H]1O[C@H](CO)[C@@H](O)[C@H](O)[C@@H]1O', '0.2792 µM'),
  ('CCCCCCCCCCCCCCCC[N+](C)(C)CC.[Br-]', '7.579 µM'),
  ('Cc1ccccc1C(=O)Nc1ccc(C(=O)N2CCCC(N(C)C)c3ccccc32)cc1 (stereo not shown)', '> 10 µM'),
  ('COc1ccc2c(c1)c1c3n2CCN(C)C3=NCC1', '> 10 µM'),
  ('COc1ccc2cc1Oc1ccc(cc1)C[C@H]1c3c(cc4c(c3Oc3cc5c(cc3OC)CCN(C)[C@@H]5C2)OCO4)CCN1C', '> 10 µM'),
  ('CCN[C@@H](C)Cc1cccc(C(F)(F)F)c1', '> 10 µM');

The values you see were collected from paper PMC4503722.
